Recorded measurements of pIC50, one per entry
biological target: MMP-9 (catalytic domain, human, recombinant) (Homo sapiens, UniProt P14780); construct: MMP-9 (catalytic domain, human, recombinant); purchased BIOMOL International; experiment: MMP-9 inhibition assay of boronic ester proinhibitors (IC50; activation with H2O2); format: biochemical; details: proinhibitors without H2O2; read-out: IC50 against MMP-9
Sequence (P14780 107-444 limits assumed): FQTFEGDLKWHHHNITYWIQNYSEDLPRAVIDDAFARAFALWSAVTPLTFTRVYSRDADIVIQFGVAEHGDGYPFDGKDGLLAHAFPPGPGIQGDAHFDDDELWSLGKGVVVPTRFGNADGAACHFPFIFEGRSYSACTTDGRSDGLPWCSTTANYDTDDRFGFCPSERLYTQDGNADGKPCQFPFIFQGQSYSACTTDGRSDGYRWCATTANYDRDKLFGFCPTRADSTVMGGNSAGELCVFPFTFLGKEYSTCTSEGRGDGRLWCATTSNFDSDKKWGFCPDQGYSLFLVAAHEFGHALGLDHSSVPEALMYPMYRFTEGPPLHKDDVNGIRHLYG
pIC50: −log10 of the molar value.

In [3]: df
Out[3]:
                           structure_smiles                               test_target  test_result
0  CC1(C)OB(c2ccc(COn3c(C(=O)NCc4ccc(-c5ccccc5)cc4)cccc3=O)cc2)OC1(C)C  MMP-9 (catalytic domain, human, recombinant) (Homo sapiens, UniProt P14780)       < 3.00

Now let's try a different one.
pIC50 reported for this compound "CC1(C)OB(c2ccc(COc3c(C(=O)NCc4ccc(-c5ccccc5)cc4)occc3=O)cc2)OC1(C)C" : < 3.00
